- TARGET OR SYSTEM: Ras-related C3 botulinum toxin substrate 1 (Homo sapiens)
- PROTOCOL TEXT: Inhibition of Rac1b GTPase activity assessed as incorporation of BODIPY-GTP after 40 mins by nucleotide binding competition assay
PARAMETER: IC50 (µM)
Return type: number; implicit unit µM.

Input line: Given the entry COc1ccc2cc3[n+](cc2c1OC)CCc1cc(O)c(O)cc1-3 , report its measured IC50.
Output line: 31

Input line: # iterate: Nc1nc2c(ncn2[C@H]2O[C@@H](COP(=O)(O)OP(=O)(O)O)[C@H](O)[C@@H]2O)c(=O)[nH]1
Output line: 1.8

Input line: Again, but for COc1ccc2c(c[n+](C)c3c4cc5c(cc4ccc23)OCO5)c1OC [CHELERYTHRINE CHLORIDE]
Output line: 7
